- assay target: Voltage-dependent T-type calcium channel subunit alpha-1H (Homo sapiens)
- Sequence (O95180 whole entry): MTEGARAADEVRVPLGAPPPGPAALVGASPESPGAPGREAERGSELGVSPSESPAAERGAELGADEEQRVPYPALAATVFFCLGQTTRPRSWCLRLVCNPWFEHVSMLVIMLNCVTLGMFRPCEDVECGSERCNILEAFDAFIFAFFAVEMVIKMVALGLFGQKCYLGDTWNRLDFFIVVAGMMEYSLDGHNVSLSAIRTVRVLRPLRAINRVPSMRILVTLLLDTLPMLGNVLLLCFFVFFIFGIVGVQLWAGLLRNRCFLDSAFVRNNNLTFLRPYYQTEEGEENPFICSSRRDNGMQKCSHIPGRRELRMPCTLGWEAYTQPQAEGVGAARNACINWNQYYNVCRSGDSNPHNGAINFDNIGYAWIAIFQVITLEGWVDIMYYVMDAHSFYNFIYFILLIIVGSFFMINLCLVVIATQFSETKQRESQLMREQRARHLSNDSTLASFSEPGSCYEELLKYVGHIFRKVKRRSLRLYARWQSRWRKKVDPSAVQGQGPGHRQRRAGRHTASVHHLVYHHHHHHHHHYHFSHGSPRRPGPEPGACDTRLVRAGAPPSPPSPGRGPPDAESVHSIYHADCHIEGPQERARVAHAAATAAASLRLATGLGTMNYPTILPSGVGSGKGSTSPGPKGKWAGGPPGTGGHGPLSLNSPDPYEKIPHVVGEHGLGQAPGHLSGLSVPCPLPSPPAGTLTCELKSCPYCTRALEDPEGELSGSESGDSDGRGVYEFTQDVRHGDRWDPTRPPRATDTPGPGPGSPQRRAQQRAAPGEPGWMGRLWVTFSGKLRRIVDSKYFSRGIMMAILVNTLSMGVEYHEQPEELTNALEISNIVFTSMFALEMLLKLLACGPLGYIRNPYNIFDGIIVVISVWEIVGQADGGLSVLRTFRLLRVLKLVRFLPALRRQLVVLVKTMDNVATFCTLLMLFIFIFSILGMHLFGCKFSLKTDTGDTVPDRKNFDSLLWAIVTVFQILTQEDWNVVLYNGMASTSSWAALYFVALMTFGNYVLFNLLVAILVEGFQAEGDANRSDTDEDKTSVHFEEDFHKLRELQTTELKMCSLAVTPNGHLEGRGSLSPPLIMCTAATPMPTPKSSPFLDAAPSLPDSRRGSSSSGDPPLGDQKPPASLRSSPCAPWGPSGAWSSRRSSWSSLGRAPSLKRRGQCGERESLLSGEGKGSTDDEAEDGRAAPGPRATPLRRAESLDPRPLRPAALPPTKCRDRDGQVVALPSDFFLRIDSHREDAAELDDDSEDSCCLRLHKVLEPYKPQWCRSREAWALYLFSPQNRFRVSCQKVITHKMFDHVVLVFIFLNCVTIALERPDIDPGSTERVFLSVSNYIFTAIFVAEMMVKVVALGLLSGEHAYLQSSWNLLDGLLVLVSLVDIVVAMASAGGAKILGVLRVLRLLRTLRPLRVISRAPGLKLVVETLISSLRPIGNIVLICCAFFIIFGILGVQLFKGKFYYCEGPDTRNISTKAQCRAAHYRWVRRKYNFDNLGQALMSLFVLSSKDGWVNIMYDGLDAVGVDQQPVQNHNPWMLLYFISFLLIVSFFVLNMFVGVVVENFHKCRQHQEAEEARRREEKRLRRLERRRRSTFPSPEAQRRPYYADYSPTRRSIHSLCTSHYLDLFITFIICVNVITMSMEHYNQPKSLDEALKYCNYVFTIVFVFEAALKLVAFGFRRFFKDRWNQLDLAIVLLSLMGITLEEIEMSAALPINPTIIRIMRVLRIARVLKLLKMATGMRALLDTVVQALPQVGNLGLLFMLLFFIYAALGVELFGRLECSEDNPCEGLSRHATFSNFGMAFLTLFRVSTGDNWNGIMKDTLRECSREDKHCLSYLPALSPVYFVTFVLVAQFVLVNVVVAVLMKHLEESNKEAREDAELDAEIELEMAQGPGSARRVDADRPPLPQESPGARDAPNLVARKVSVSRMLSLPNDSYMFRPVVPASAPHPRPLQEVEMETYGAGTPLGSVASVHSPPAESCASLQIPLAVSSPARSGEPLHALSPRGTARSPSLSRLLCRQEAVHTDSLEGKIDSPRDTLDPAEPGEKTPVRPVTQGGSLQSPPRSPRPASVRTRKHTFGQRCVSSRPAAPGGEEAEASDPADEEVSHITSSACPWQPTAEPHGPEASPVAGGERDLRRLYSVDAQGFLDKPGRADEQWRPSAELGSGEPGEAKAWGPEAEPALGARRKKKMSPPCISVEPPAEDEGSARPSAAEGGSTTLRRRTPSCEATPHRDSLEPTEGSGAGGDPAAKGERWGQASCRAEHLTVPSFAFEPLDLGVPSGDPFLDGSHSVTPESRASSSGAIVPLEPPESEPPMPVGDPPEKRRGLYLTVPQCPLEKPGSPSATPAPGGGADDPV
- measurement protocol: Inhibition of human CaV3.2 expressed in HEK293 cells at -100 mV membrane potential by Ionworks HT assay
- Format: cell-based
outcome measure: IC50 (nM)

[A] O=C(Nc1ccc(F)c(F)c1)N1CCC2(CC1)C(=O)N(c1cccc(Cl)c1)C2c1cccc[n+]1[O-] (stereo in doubt; form 2)
[B] O=C(Nc1cc(F)cc(F)c1)N1CCC2(CC1)CN(c1ccc(F)c(Cl)c1)C2c1ccccn1 (stereo in doubt; 38a)
[C] CC(C)CN1CC2(CCN(C(=O)Nc3cc(F)cc(F)c3)CC2)C1c1ccc(Cl)cc1 (racemic)
Query string: Would you mind ranking these compounds by ascending IC50? When ranking, write the labels in the order the request describes.
Result string: B, C, A

[A] O=C1N(c2ccc(F)c(Cl)c2)C(c2ccccn2)C12CCN(c1nc3ccc(Cl)cc3[nH]1)CC2 (stereo not given)
[B] O=C(Nc1ccc(F)c(F)c1)N1CCC2(CC1)C(=O)N(c1cccc(Cl)c1)C2c1ccccn1 (stereo in doubt; 42b)
Query string: IC50 comparison. Which is larger, A or B ? Write the label of whichever entry you select.
Result string: B
(B: 652 nM, A: 78 nM)

[a] COC(=O)[C@H](CO)NC(=O)N1CCC2(CC1)C(=O)N(c1cccc(F)c1)C2c1ccc(Cl)cc1 (stereo not given in full)
[b] O=C(Nc1ccc(F)c(F)c1)N1CCC2(CC1)C(=O)N(c1ccc(F)c(Cl)c1)C2c1ccccn1 (stereo in doubt; 40b)
[c] O=C(Nc1cc(F)cc(F)c1)N1CCC2(CC1)C(=O)N(C1CC1)C2c1ccc(Cl)cc1 (racemic)
[d] CC[C@H](C)[C@H](NC(=O)N1CCC2(CC1)CN(C(C)C)C2c1ccc(Cl)cc1)C(=O)OC (stereo in doubt; 2a)
[e] N#Cc1cccc(NC(=O)N2CCC3(CC2)C(=O)N(c2cccc(F)c2)C3c2ccc(Cl)cc2)c1 (stereo in doubt; 37b)
Query string: Your job: order these 5 records by IC50, ascending. # respond with the labels, arranged in the requested order
Result string: d, b, e, c, a

---

- assay target: Transient receptor potential cation channel subfamily V member 1 (Homo sapiens)
- measurement protocol: Inhibition of TRPV1 expressed in HEK293 assessed as capsaicin activation cells at 3.3 ug/mL by FLIPR assay
- Type: cell-based
outcome measure: inhibition (%)

Consider the worked cases shown below.
INSERT INTO results (compound, readout_units, quantitative_readout) VALUES
  ('O=C(Nc1cc(F)cc(F)c1)N1CCC2(CC1)CN(c1cccc(F)c1)C2c1ccc(Cl)cc1 (stereo in doubt; 35a)', '%', 6.22),
  ('COC(=O)[C@H](CO)NC(=O)N1CCC2(CC1)C(=O)N(c1cccc(F)c1)C2c1ccc(Cl)cc1 (stereo partly drawn)', '%', 6),
  ('CC[C@H](C)[C@H](NC(=O)N1CCC2(CC1)C(=O)N(C)C2c1ccc(Cl)cc1)C(=O)OC (mixture of isomers)', '%', 3.12),
  ('CC[C@H](C)[C@H](NC(=O)N1CCC2(CC1)C(=O)N(c1cccc(F)c1)C2c1ccc(Cl)cc1)C(=O)OC(C)C (stereo partly drawn)', '%', 18),
  ('CC[C@H](C)[C@H](NC(=O)N1CCC2(CC1)CN(C(C)C)C2c1ccc(F)cc1)C(=O)OC (mixture of isomers)', '%', 13.4);

[P] COC(=O)[C@H](COC(C)(C)C)NC(=O)N1CCC2(CC1)C(=O)N(c1cccc(F)c1)C2c1ccc(Cl)cc1 (stereo partly drawn)
[Q] CC(C)N1CC2(CCN(C(=O)Nc3ccc(F)c(F)c3)CC2)C1c1ccc(Cl)cc1 (stereo not drawn)
[R] CN1CC2(CCN(C(=O)Nc3cc(F)cc(F)c3)CC2)C1c1ccc(F)cc1 (racemic)
[S] CC[C@H](C)[C@H](NC(=O)N1CCC2(CC1)C(=O)N(c1cccc(F)c1)C2c1ccc(Cl)cc1)C(=O)OC (stereo in doubt; 23b)
Query string: Please rank these compounds by inhibition in descending order. Give your ranking as a list of the labels in the requested order.
Result string: Q, R, S, P
(Q: 64%, R: 21.8%, S: 8.79%, P: 4.4%)

[I] CCC(C)NC(=O)N1CCC2(CC1)C(=O)N(c1cccc(F)c1)C2c1ccc(Cl)cc1 (stereo not drawn)
[II] CN1C(=O)C2(CCN(C(=O)Nc3cc(F)cc(F)c3)CC2)C1c1ccc(Cl)cc1 (racemic)
Query string: Hi there, can you help? I need to know whether I or II has lower measured inhibition. Please identify the chosen entry by its label.
Result string: I
(I: 5.2%, II: 20.7%)

[I] O=C(Nc1cc(F)cc(F)c1)N1CCC2(CC1)C(=O)N(c1cncc(Cl)c1)C2c1ccccn1 (racemic)
[II] N#Cc1cccc(NC(=O)N2CCC3(CC2)C(=O)N(c2cccc(F)c2)C3c2ccc(Cl)cc2)c1 (stereo in doubt; 37b)
Query string: Determine, for I and II , which has the greater value of inhibition. Identify your selection by its label.
Result string: II
(II: 12.7%, I: 6.7%)

---

- measurement protocol: Protein binding in rat plasma
- Assay type: ADME, cell-free
- stated conditions: read-out: PPB (converted)
outcome measure: fraction unbound

[P] O=C(Nc1cccc(C(F)(F)F)c1)N1CCC2(CC1)C(=O)N(c1ccc(F)c(F)c1)C2c1ccccn1 (stereo in doubt; 411b)
[Q] C[C@H](NC(=O)N1CCC2(CC1)C(=O)N(c1cccc(F)c1)C2c1ccc(Cl)cc1)c1ccc(F)cc1 (stereo partly specified)
Query string: Lower value for measured fraction unbound? Options: P , Q Write down the label of the entry you select.
Result string: Q

[A] O=C(Nc1ccc(F)c(F)c1)N1CCC2(CC1)C(=O)N(c1ccc(F)c(Cl)c1)C2c1ccccn1 (stereo in doubt; 40a)
[B] CN1C(=O)C2(CCN(C(=O)Nc3cc(F)cc(F)c3)CC2)C1c1ccc(Cl)cc1 (racemic)
Query string: Lower value of fraction unbound belongs to which: A or B ? In your reply, give the label of the chosen option.
Result string: A
(A: 0.004, B: 0.034)

[a] O=C(Nc1cc(F)cc(F)c1)N1CCC2(CC1)C(=O)N(c1ccc(F)c(Cl)c1)C2c1ccccn1 (stereo in doubt; 39a)
[b] O=C(Nc1cc(F)cc(F)c1)N1CCC2(CC1)CN(c1ccc(F)c(Cl)c1)C2c1ccccn1 (stereo in doubt; 38b)
Query string: Choose between a and b : whose measured fraction unbound value is numerically larger? Selection: enter the item's label.
Result string: a
(a: 0.004, b: 0.001)

[P] O=C1N(c2ccc(F)c(Cl)c2)C(c2ccccn2)C12CCN(c1nc3cc(F)c(Cl)cc3[nH]1)CC2 (stereo unspecified)
[Q] O=C(Nc1ccc(F)c(F)c1)N1CCC2(CC1)C(=O)N(c1cccc(Cl)c1)C2c1cccc[n+]1[O-] (stereo in doubt; form 1)
Query string: Param pair: P , Q . Output: the one whose fraction unbound is numerically greater. Answer = label.
Result string: Q

[a] O=C(Nc1cc(F)cc(F)c1)N1CCC2(CC1)CN(C1CC1)C2c1ccc(Cl)cc1 (racemic)
[b] CN1CC2(CCN(C(=O)Nc3cc(F)cc(F)c3)CC2)C1c1ccc(F)cc1 (racemic)
[c] N#Cc1cccc(NC(=O)N2CCC3(CC2)C(=O)N(c2cccc(Cl)c2)C3c2ccccn2)c1 (stereo in doubt; 43b)
Query string: Task for the reader: rank each entry by its fraction unbound, from the minimum upward. A ranking is expressed here by listing the labels in the requested order.
Result string: a, c, b
(a: 0.002, c: 0.012, b: 0.05)

---

- assay target: Transient receptor potential cation channel subfamily V member 1 (Homo sapiens)
- measurement protocol: Inhibition of TRPV1 expressed in HEK293 assessed as capsaicin activation cells at 3.3 ug/mL by FLIPR assay
- Type: cell-based
outcome measure: inhibition (%)

Below are worked cases with known answers.
INSERT INTO results (compound, readout_units, quantitative_readout) VALUES
  ('O=C(Nc1cc(F)cc(F)c1)N1CCC2(CC1)CN(c1cccc(F)c1)C2c1ccc(Cl)cc1 (stereo in doubt; 35b)', '%', 30.1),
  ('O=C(Nc1cc(F)cc(F)c1)N1CCC2(CC1)C(=O)N(c1cccc(F)c1)C2c1ccc(Cl)cc1 (stereo in doubt; 36a)', '%', 19.3),
  ('CC(C)N1CC2(CCN(C(=O)Nc3cc(F)cc(F)c3)CC2)C1c1ccc(F)cc1 (racemic)', '%', 46.5),
  ('CC(C)CN1CC2(CCN(C(=O)Nc3cc(F)cc(F)c3)CC2)C1c1ccc(Cl)cc1 (racemic)', '%', 53),
  ('O=C(Nc1ccc(F)c(F)c1)N1CCC2(CC1)C(=O)N(c1ccc(F)c(Cl)c1)C2c1ccccn1 (stereo in doubt; 40b)', '%', 39),
  ('CC[C@H](C)[C@H](NC(=O)N1CCC2(CC1)CN(C)C2c1ccc(Cl)cc1)C(=O)OC (mixture of isomers)', '%', 25.2),
  ('N#Cc1cccc(NC(=O)N2CCC3(CC2)C(=O)N(c2cccc(Cl)c2)C3c2ccccn2)c1 (stereo in doubt; 43a)', '%', 30),
  ('O=C1N(c2cccc(Cl)c2)C(c2ccccn2)C12CCN(c1nc3cc(F)c(C(F)(F)F)cc3[nH]1)CC2 (centres undefined)', '%', 37.9);

[A] CC[C@H](C)[C@H](NC(=O)N1CCC2(CC1)CN(c1cccc(F)c1)C2c1ccc(Cl)cc1)C(=O)OC (stereo in doubt; 22b)
[B] O=C1N(c2ccc(F)c(Cl)c2)C(c2ccccn2)C12CCN(c1nc3ccc(Cl)cc3[nH]1)CC2 (centres undefined)
Query string: Hey, between A and B which has a smaller measured inhibition? Please respond with the label that marks your chosen entry.
Result string: A

[a] CC(C)N1CC2(CCN(C(=O)Nc3cc(F)cc(F)c3)CC2)C1c1ccc(Cl)cc1 (centres undefined)
[b] O=C(Nc1cc(F)cc(F)c1)N1CCC2(CC1)C(=O)N(c1cccc(F)c1)C2c1ccc(Cl)cc1 (stereo in doubt; 36b)
[c] CC[C@H](C)[C@H](NC(=O)N1CCC2(CC1)CN(C(C)C)C2c1ccc(Cl)cc1)C(=O)OC (stereo in doubt; 2)
[d] C[C@H](NC(=O)N1CCC2(CC1)C(=O)N(c1cccc(F)c1)C2c1ccc(Cl)cc1)c1ccc(F)cc1 (some centres undefined)
[e] O=C1N(c2ccc(F)c(Cl)c2)C(c2ccccn2)C12CCN(c1nc3cc(F)c(C(F)(F)F)cc3[nH]1)CC2 (stereo in doubt; 52b)
Query string: Output the entries ranked by inhibition from maximum down to minimum. # respond with the labels, arranged in the requested order
Result string: c, e, a, b, d
(c: 87.1%, e: 59.8%, a: 19.1%, b: 6.79%, d: 2.4%)

[A] N#Cc1cccc(NC(=O)N2CCC3(CC2)C(=O)N(c2cccc(F)c2)C3c2ccc(Cl)cc2)c1 (stereo in doubt; 37a)
[B] O=C(Nc1ccc(F)c(F)c1)N1CCC2(CC1)C(=O)N(c1cccc(Cl)c1)C2c1ccccn1 (stereo in doubt; 42a)
Query string: Could you check which of A and B has a smaller value for inhibition? Pick one; state its label.
Result string: A
(A: 4.79%, B: 82.7%)

[A] CC[C@H](C)[C@H](NC(=O)N1CCC2(CC1)C(=O)N(c1cccc(F)c1)C2c1ccc(Cl)cc1)C(=O)OC (stereo in doubt; 23a)
[B] O=C(Nc1ccc(F)c(F)c1)N1CCC2(CC1)C(=O)N(c1cccc(Cl)c1)C2c1ccccn1 (stereo in doubt; 42b)
Query string: Response body: label of entry with the larger inhibition; valid values A , B . Please reply using the label of the selected record.
Result string: B
(B: 89%, A: 6.18%)
